- Read-out: Interleukin-8 (IL8), CXCL8 (gene 3576)
- assay info: BSK_3C_IL8: BioMAP Diversity Plus: 3C Assay for Interleukin-8 (IL8) Biomarker Activity (AID 2283020)
- condition: primary human endothelial cells (HUVEC); actives raise or lower the signal
Calls of active or inactive are those of the source. Rule for the calls: active = hit-call score of the fitted dose curve at least 0.9, where 1 is the maximum; inactive = score below 0.9.
measurement label: outcome

# annotated cases, reported outcome shown
smiles data	experimental result
O=C(O)C(F)(F)C(F)(F)C(F)(F)C(F)(F)C(F)(F)C(F)(F)C(F)(F)C(F)(F)C(F)(F)C(F)(F)C(F)(F)C(F)(F)C(F)(F)F	inactive
O=C(O)C(F)(F)C(F)(F)C(F)(F)F	inactive
C=CC(F)(F)C(F)(F)C(F)(F)C(F)(F)C(F)(F)C(F)(F)C(F)(F)C(F)(F)C=C	inactive
FC(F)(F)C(F)(F)C(F)(F)C(F)(F)C(F)(F)C(F)(F)CCS	inactive

Now for another entry.
Query: I would be grateful if you could share the reported outcome for FC(F)(F)C(F)(F)C(F)(F)CI .
Reply: inactive

###

- assay info: ATG_CRE_CIS: Attagene CIS-FACTORIAL HepG2 Assay for human cAMP Responsive Element (CRE) binding protein 3 (AID 2282926)
- condition: HepG2 CRE cis-reporter, Attagene multiplexed mRNA; actives raise or lower the signal
The source made the active and inactive calls. The calls were made as follows: active = hit-call score of the fitted dose curve at least 0.9, where 1 is the maximum; inactive = score below 0.9.
measurement label: outcome

Examples with their reported outcome follow.
compound	experimental result
O=C(O)C=C(C(F)(F)F)C(F)(F)F	inactive
C=CC(F)(F)C(F)(F)C(F)(F)C(F)(F)C(F)(F)C(F)(F)C(F)(F)C(F)(F)C=C	inactive
OC[C@@H](O)[C@@H](O)[C@H](O)[C@@H](O)CO	inactive
O=C(C=Cc1ccccc1)OCC=Cc1ccccc1	inactive
CNC(=S)NC	inactive

Query: So what does the record say about outcome for COC(OC(C)=O)c1ccccc1 (stereo not drawn) ?
Reply: inactive

Query: Entry OCCCC(F)(F)C(F)(F)C(F)(F)F has what outcome?
Reply: inactive

Query: Consider the compound CCCCCCCCCCCCCCCC[N+](C)(C)Cc1ccccc1 and give its measured outcome.
Reply: inactive

Query: outcome lookup needed for Cc1cccc(N(C)C)c1 , thanks.
Reply: inactive

Query: Quick check: outcome of CCCCNc1ccccc1 ?
Reply: inactive

Query: // outcome lookup, key: C=CC/C=C/C/C=C/C/C=C/C
Reply: inactive

Query: // lookup outcome for CCCCOCCOCCOC(=O)CCCCC(=O)OCCOCCOCCCC
Reply: inactive

Query: If you can, please state the reported outcome value of C=CC(=O)OCC(F)(F)C(F)(F)C(F)(F)C(F)(F)C(F)(F)C(F)(F)C(F)(F)F .
Reply: inactive

###

- measured target: Cellular tumor antigen p53 (Homo sapiens) (UniProt P04637)
- Sequence (P04637 whole entry, looked up): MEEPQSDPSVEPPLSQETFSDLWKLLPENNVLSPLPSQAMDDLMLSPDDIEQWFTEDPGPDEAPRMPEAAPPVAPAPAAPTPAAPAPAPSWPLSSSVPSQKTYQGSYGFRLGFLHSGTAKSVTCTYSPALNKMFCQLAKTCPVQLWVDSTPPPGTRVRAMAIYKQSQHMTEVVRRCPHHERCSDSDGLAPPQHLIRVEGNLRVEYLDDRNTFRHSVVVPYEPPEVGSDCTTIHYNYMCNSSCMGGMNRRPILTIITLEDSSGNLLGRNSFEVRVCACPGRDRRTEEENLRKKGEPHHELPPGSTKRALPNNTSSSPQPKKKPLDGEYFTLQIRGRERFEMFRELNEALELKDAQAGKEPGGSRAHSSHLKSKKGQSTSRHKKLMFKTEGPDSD
- assay info: TOX21_p53_BLA_p4_ratio: Tox21 HCT-116 p53 Agonism Beta-lactamase Assay, Ratio, Phase 4 (AID 2283601)
Results filed as inconclusive are left out. The source made the active and inactive calls. Rule for the calls: active = hit-call score of the fitted dose curve at least 0.9, where 1 is the maximum; inconclusive = response in the unintended direction; inactive = score below 0.9.
Can you answer with just one of these options? yes (1) = active, no (0) = inactive

compound	assigned label
CC(Cc1ccc(O)c(O)c1)C(C)Cc1ccc(O)c(O)c1 (stereo unspecified)	yes (1)

Query: Check the results log: what was the call for CC(CCl)OP(=O)(OC(C)CCl)OC(C)CCl (stereo unspecified) ?
Reply: no (0)

Query: Recorded call for Oc1ccc(Nc2ccccc2)cc1 ?
Reply: no (0)

Query: Test call, this compound: CC/C=C\CCOC(=O)c1ccccc1
Reply: no (0)

Query: Dear colleague, could you share the recorded outcome for O=S(=O)(O)c1ccc2ccccc2c1 when you have a moment?
Reply: no (0)

Query: Outcome logged for CCCCCCOC(=O)c1ccccc1 in this assay:
Reply: no (0)

Query: Short answer needed: outcome of this test for CCc1ccc(C(c2ccc(CC)cc2)C(Cl)Cl)cc1 ?
Reply: no (0)

Query: State the result this test recorded for COC(=O)C1CCC(C(=O)OC)CC1 (stereo unspecified) .
Reply: no (0)

Query: Tell me the recorded outcome of this test for O=C(C=Cc1ccccc1)OCC=Cc1ccccc1 .
Reply: no (0)

Query: Answer briefly: the call reported for CN(C)Cc1ccccc1O in this assay.
Reply: no (0)

Query: // outcome(item) with item = Nc1ccc([N+](=O)[O-])cc1O
Reply: no (0)

Query: Name the outcome recorded for C#C[C@]1(O)CC[C@H]2[C@@H]3CCc4cc(OC)ccc4[C@H]3CC[C@@]21C in the assay.
Reply: no (0)

Query: Call for entry CC/C=C\CCOC(C)=O :
Reply: no (0)

Query: Answer briefly: the call reported for FC(F)(F)C(F)(F)C(F)(F)C(F)(F)CCI in this assay.
Reply: no (0)

Query: Hey, what did the test say about CNC(=S)NC ?
Reply: no (0)

Query: Assay result, entry Nc1cc(Cl)c(N)c(Cl)c1 — outcome?
Reply: no (0)

###

- Read-out: Macrophage colony-stimulating factor (MCSF), CSF1 (gene 1435)
- assay info: BSK_CASM3C_MCSF: BioMAP Diversity Plus: CASM3C Assay for Macrophage colony-stimulating factor (MCSF) Biomarker Activity (AID 2283044);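 note: M-CSF protein amount quantified by ELISA after 24 h exposure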
- condition: primary human coronary artery smooth muscle cells; actives raise or lower the signal
The source made the active and inactive calls. How the source made its calls: active means hit-call score of the fitted dose curve at least 0.9, where 1 is the maximum; inactive means score below 0.9.
Mark one answer only. Choices: Yes (active), No (inactive)

compound	assigned label
CCCCCCCCC(F)(F)C(F)(F)C(F)(F)C(F)(F)C(F)(F)C(F)(F)F	No
O=C(O)C(F)(F)C(F)(F)C(F)(F)F	No

Query: // param item: Oc1ccc(Nc2ccccc2)cc1 ; yields the recorded call
Reply: No

Query: Can you look up the reported call for Nc1ccc([N+](=O)[O-])cc1O for me?
Reply: No

Query: What was the test verdict on CO[Si](OC)(c1ccccc1)c1ccccc1 ?
Reply: Yes

Query: What outcome does the record of this test show for FC(F)(F)C(F)(F)CNCC(F)(F)C(F)(F)F ?
Reply: No

Query: Recorded test outcome, item O=P(O)(O)OCCC(F)(F)C(F)(F)C(F)(F)C(F)(F)C(F)(F)C(F)(F)F
Reply: No

###

- measured target: Estrogen receptor (Homo sapiens) + Estrogen receptor beta (Homo sapiens) (UniProt P03372+Q92731)
- Sequence (P03372 whole entry, looked up): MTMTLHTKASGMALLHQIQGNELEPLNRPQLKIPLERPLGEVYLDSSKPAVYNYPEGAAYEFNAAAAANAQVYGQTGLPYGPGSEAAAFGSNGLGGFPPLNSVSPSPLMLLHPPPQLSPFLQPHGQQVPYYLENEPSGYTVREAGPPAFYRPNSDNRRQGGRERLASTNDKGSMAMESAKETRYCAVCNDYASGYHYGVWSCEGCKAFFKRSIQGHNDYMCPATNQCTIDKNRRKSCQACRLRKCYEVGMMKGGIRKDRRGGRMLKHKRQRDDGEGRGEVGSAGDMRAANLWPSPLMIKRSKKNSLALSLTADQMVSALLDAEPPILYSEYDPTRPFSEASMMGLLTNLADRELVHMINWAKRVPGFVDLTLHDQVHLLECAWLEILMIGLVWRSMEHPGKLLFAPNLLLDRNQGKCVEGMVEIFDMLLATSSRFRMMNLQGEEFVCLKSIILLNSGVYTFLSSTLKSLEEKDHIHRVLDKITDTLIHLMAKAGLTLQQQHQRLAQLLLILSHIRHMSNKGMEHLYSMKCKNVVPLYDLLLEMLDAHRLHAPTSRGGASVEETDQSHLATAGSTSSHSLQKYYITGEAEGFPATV
- Sequence (Q92731 whole entry, looked up): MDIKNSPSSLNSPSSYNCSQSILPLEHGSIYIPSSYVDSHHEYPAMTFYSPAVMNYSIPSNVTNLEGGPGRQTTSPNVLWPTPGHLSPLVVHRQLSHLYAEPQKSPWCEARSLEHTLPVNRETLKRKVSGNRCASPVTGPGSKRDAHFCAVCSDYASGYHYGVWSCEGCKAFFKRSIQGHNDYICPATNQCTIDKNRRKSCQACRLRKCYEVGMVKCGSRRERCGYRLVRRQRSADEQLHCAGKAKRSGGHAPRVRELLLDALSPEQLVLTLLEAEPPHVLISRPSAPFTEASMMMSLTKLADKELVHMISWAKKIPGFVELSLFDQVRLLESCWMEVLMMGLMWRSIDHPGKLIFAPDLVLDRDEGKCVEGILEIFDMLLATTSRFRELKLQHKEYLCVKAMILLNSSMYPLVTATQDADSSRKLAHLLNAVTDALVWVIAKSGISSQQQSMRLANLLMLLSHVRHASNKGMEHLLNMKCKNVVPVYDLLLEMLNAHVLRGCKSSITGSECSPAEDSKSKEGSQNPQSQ
- assay info: OT_ER_ERaERb_0480: Odyssey Thera (OT) 8-hour HEK293T Protein-Complementation Assay for Estrogen Receptor-alpha/-beta Heterodimer (AID 2283352)
Results filed as inconclusive are left out. Activity calls are given as the source filed them. The calls were made as follows: active = hit-call score of the fitted dose curve at least 0.9, where 1 is the maximum; inconclusive = response in the unintended direction; inactive = score below 0.9.
API: response.call in y (active), n (inactive)

Known results for compounds:
compound	assigned label
CCCCOc1ccc(N)cc1	n
O=C(OCCOCCOCCOC(=O)c1ccccc1)c1ccccc1	n
COC(=O)C1CCC(C(=O)OC)CC1 (centres undefined)	n

Now consider the entry below.
Query: Please share the test call associated with CC/C=C\CCOC(C)=O .
Reply: n

###

- measured target: Retinoic acid receptor RXR-alpha (Homo sapiens) (UniProt P19793)
- Sequence (P19793 whole entry, looked up): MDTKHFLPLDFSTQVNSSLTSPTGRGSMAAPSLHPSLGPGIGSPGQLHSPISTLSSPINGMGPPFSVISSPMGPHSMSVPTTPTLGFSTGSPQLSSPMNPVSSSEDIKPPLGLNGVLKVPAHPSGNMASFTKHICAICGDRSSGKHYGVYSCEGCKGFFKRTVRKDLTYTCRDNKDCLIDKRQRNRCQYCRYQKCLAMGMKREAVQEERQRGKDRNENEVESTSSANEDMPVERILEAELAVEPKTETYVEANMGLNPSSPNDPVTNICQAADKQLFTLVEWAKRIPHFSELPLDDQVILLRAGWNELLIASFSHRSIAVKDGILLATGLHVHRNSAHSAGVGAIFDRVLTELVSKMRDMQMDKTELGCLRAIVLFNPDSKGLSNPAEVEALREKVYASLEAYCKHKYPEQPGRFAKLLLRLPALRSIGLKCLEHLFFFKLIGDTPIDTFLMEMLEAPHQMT
- assay info: ATG_RXRa_TRANS: Attagene TRANS-FACTORIAL HepG2 Assay for human Retinoid X Receptor alpha (RXRa) (AID 2283012)
Records with an inconclusive call do not appear. Active and inactive are the calls of the source. Rule for the calls: active = hit-call score of the fitted dose curve at least 0.9, where 1 is the maximum; inconclusive = response in the unintended direction; inactive = score below 0.9.
measurement label: outcome

compound	experimental result
O=C(O)C=C(C(F)(F)F)C(F)(F)F	inactive
CCO[Si](CCC(F)(F)C(F)(F)C(F)(F)C(F)(F)C(F)(F)C(F)(F)F)(OCC)OCC	inactive
FC(F)(F)C(F)(F)C(F)(F)C(F)(F)C(F)(F)C(F)(F)C(F)(F)C(F)(F)CCS	inactive
CCc1ccc(C(c2ccc(CC)cc2)C(Cl)Cl)cc1	inactive

Query: Field: outcome (Retinoic acid receptor RXR-alpha (Homo sapiens) (UniProt P19793)). Entry: OC[C@@H](O)[C@@H](O)[C@H](O)[C@@H](O)CO
Reply: inactive

Query: Lab note: need outcome for COC(=O)C1CCC(C(=O)OC)CC1 (stereo not drawn) on Retinoic acid receptor RXR-alpha (Homo sapiens) (UniProt P19793), anyone have it?
Reply: inactive

Query: Look up outcome with Retinoic acid receptor RXR-alpha (Homo sapiens) (UniProt P19793) for this compound: O=C(O)C(F)(OC(F)(F)C(F)(OC(F)(F)C(F)(F)C(F)(F)F)C(F)(F)F)C(F)(F)F (stereo not drawn)
Reply: inactive

Query: State its outcome on Retinoic acid receptor RXR-alpha (Homo sapiens) (UniProt P19793): Nc1cc(Cl)c(N)c(Cl)c1
Reply: inactive

###

- System: TTR (gene 7276)
- assay info: CCTE_GLTED_hTTR_0.5uM: CCTE's human Transthyretin (hTTR) Inhibition Assay, with 0.5uM TTR, Great Lakes Toxicology and Ecology Division (GLTED) Lab (AID 2284320)
Activity calls are given as the source filed them. The calls were made as follows: active = hit-call score of the fitted dose curve at least 0.9, where 1 is the maximum; inactive = score below 0.9.
Pick one and only one: active, inactive

smiles data	assigned label
O=C(CC(=O)C(F)(F)C(F)(F)F)C(F)(F)F	active
O=S(=O)(O)C(F)(F)C(F)(F)C(F)(F)C(F)(F)C(F)(F)C(F)(F)C(F)(F)F	active

Query: Please share the test call associated with O=C(O)C(F)(F)C(F)(F)C(F)(F)C(F)(F)C(F)(F)C(F)(F)C(F)(F)C(F)(F)Cl .
Reply: active

Query: recorded result category for COC(=O)CCC(F)(F)C(F)(F)C(F)(F)C(F)(F)F in this test
Reply: active

Query: Status in this test for CC(C)(C)C(=O)CC(=O)C(F)(F)C(F)(F)C(F)(F)F ?
Reply: inactive

Query: Each molecule tested received a call. Report the one for FC(F)(F)C(F)(F)C(F)(F)C(F)(F)CCI .
Reply: active

Query: Given OCC(F)(F)C(F)(F)C(F)(F)C(F)(F)C(F)(F)C(F)(F)F , state the outcome it received in this test.
Reply: active
